- TARGET_ENTITY: HAQ allele hSTING (Homo sapiens, UniProt Q86WV6, G230A/H232R/R293Q)
- Construct: DNA encoding amino acids 140-379 (amino acid numbering corresponding to Swiss Prot Q86WV6); 6xHIS (N, cleaved yes); SUMO (N, cleaved yes); made in house; host or cells: Rosetta2 (DE3) E. coli
- Sequence (Q86WV6 140-379 G230A/H232R/R293Q limits assumed): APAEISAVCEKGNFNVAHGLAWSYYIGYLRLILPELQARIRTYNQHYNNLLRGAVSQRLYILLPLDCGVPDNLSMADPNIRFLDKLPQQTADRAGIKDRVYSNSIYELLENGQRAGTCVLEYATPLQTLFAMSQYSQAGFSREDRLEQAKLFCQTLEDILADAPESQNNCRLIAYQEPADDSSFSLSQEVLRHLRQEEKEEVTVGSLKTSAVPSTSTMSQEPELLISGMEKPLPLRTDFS
- ASSAY_COMMENT: Differential scanning fluorometry (DSF) binding to purified hSTING HAQ allele
- PARTICULARS: DSF, 1 mg/ml STING AA140-379, ligand 1 mM
ENDPOINT_NAME: hSTING Tm Shift HAQ (°C)

RECORD_SMILES	TARGET_ENTITY	ENDPOINT_NAME	MEAS_VALUE
Nc1ncnc2c1ncn2[C@@H]1O[C@@H]2CO[P@@](=O)(S)O[C@H]3[C@@H](F)[C@H](n4cnc5c(N)ncnc54)O[C@@H]3CO[P@@](=O)(S)O[C@H]2[C@H]1F	HAQ allele hSTING (Homo sapiens, UniProt Q86WV6, G230A/H232R/R293Q)	hSTING Tm Shift HAQ	32.4
Nc1ncnc2c1ncn2[C@@H]1O[C@@H]2CO[P@@](=O)(S)O[C@H]3[C@H](F)[C@H](n4cnc5c(N)ncnc54)O[C@@H]3CO[P@](=O)(S)O[C@H]2[C@@H]1F	HAQ allele hSTING (Homo sapiens, UniProt Q86WV6, G230A/H232R/R293Q)	hSTING Tm Shift HAQ	3.1
Nc1nc2c(ncn2[C@@H]2O[C@@H]3CO[P@@](=O)(S)O[C@H]4[C@@H](F)[C@H](n5cnc6c(N)ncnc65)O[C@@H]4CO[P@@](=O)(S)O[C@H]3[C@H]2O)c(=O)[nH]1	HAQ allele hSTING (Homo sapiens, UniProt Q86WV6, G230A/H232R/R293Q)	hSTING Tm Shift HAQ	28.8

###

- TARGET_ENTITY: hSTING(REF) (Homo sapiens)
- Sequence (Q86WV6 140-379): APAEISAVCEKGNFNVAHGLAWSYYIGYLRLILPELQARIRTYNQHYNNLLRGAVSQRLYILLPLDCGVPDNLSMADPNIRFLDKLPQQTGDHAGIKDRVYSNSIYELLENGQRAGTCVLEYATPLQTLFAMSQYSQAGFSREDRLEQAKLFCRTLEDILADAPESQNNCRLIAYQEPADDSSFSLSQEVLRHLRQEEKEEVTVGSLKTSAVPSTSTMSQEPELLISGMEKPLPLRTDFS
- ASSAY_COMMENT: Differential scanning fluorometry (DSF) binding to purified hSTING REF allele
- Set-up: DNA encoding amino acids 140-379 (amino acid numbering corresponding to Swiss Prot Q86WV6); 6xHIS (N, cleaved yes); SUMO (N, cleaved yes); made in house; host or cells: Rosetta2 (DE3) E. coli
- PARTICULARS: DSF, 1 mg/ml STING AA140-379, ligand 1 mM
Please respond with 1 when measured hSTING Tm Shift REF is strictly beneath 7 °C, and with 0 in all other cases.

COMPOUND	TARGET_ENTITY	CLASS_NAME
Nc1nc2c(ncn2[C@@H]2O[C@@H]3COP(=O)(O)O[C@H]4[C@@H](O)[C@H](n5cnc6c(=O)[nH]c(N)nc65)O[C@@H]4COP(=O)(O)O[C@H]3[C@H]2O)c(=O)[nH]1 [3'3'-(G)(G), cyclic-[G(3′,5′)p-G(3′,5′)p], reference compound]	hSTING(REF) (Homo sapiens)	1
Nc1nc2c(ncn2[C@@H]2O[C@@H]3CO[P@@](=O)(S)O[C@H]4[C@@H](O)[C@H](n5cnc6c(N)ncnc65)O[C@@H]4CO[P@](=O)(S)O[C@H]3[C@H]2F)c(=O)[nH]1 [Compound 23a]	hSTING(REF) (Homo sapiens)	0
Nc1ncnc2c1ncn2[C@@H]1O[C@@H]2CO[P@@](=O)(S)O[C@H]3[C@H](F)[C@H](n4cnc5c(N)ncnc54)O[C@@H]3CO[P@](=O)(S)O[C@H]2[C@@H]1F	hSTING(REF) (Homo sapiens)	1
CC(C)C(=O)Nc1nc2c(ncn2[C@@H]2O[C@@H]3CO[P@@](=O)(S)O[C@H]4[C@@H](F)[C@H](n5cnc6c(NC(=O)c7ccccc7)ncnc65)O[C@@H]4CO[P@@](=O)(S)O[C@H]3[C@H]2F)c(=O)[nH]1	hSTING(REF) (Homo sapiens)	0
Nc1ncnc2c1ncn2[C@@H]1O[C@@H]2CO[P@@](=O)(S)O[C@H]3[C@@H](O)[C@H](n4cnc5c(N)ncnc54)O[C@@H]3CO[P@@](=O)(S)O[C@H]2[C@H]1O [3'3'-RR-(A)(A), reference compound]	hSTING(REF) (Homo sapiens)	1
CC(C)C(=O)Nc1nc2c(ncn2[C@@H]2O[C@@H]3CO[P@@](=O)(S)O[C@H]4[C@@H](F)[C@H](n5cnc6c(N)ncnc65)O[C@@H]4CO[P@@](=O)(S)O[C@H]3[C@H]2F)c(=O)[nH]1	hSTING(REF) (Homo sapiens)	0
